test system: ACHN renal; test: NCI tumour cell line growth inhibition, 48 h; in the data active = GI50 below about 0.43 µM; inactive = the rest
Outcomes: active, inactive

[
  {
    "molecule": "c1ccc(-c2nc(Nc3ccc(-c4nc5ccccc5[nH]4)cc3)nc(N3CCOCC3)n2)cc1",
    "className": "inactive"
  },
  {
    "molecule": "CNC(=O)c1cc(Oc2ccc3nc(NC(=O)Nc4ccc(Cl)c(Cl)c4)sc3c2)ccn1",
    "className": "inactive"
  },
  {
    "molecule": "CCCCCCN1C(=O)/C(=c2\\sc3n(c2=O)C2C(NN=3)N(CC)C(=O)N2CC)c2ccccc21 (stereo not given)",
    "className": "inactive"
  },
  {
    "molecule": "CCN(CC)c1ccc(/C=N/NC(=O)c2ccc(Nc3ccnc(C(F)(F)F)c3)cc2)c(O)c1",
    "className": "active"
  },
  {
    "molecule": "Cc1c(C(=O)/C=C/c2ccc(O)cc2)nnn1-c1ccnc2c(C(F)(F)F)cccc12",
    "className": "inactive"
  }
]

----------
test system: K-562 leukemia; test: NCI tumour cell line growth inhibition, 48 h

[
  {
    "molecule": "CCCCCCN1C(=O)/C(=c2\\sc3n(c2=O)C2C(NN=3)N(CC)C(=O)N2CC)c2ccccc21 (centres undefined)",
    "measurementTarget": "K-562 leukemia",
    "GI50": "1.89 µM"
  },
  {
    "molecule": "CCOC(=O)c1cc2c(cc1Cl)SC(N(c1ccc(F)cc1)S(=O)(=O)c1ccc(OC)cc1)=NS2(=O)=O",
    "measurementTarget": "K-562 leukemia",
    "GI50": "14.2 µM"
  },
  {
    "molecule": "C=C1C(=O)O[C@H]2[C@H]1CC/C(COC(=O)NCCc1ccc(OC)cc1)=C\\CC[C@@]1(C)O[C@@H]21",
    "measurementTarget": "K-562 leukemia",
    "GI50": "3.08 µM"
  },
  {
    "molecule": "COc1ccc(-c2ccc(/C=N/n3cn[nH]c3=S)o2)c([N+](=O)[O-])c1",
    "measurementTarget": "K-562 leukemia",
    "GI50": "16.9 µM"
  },
  {
    "molecule": "COC(=O)c1c2c(c(C)[n+]([O-])c1C)C(=O)C=C(NCc1ccc(Cl)cc1)C2=O",
    "measurementTarget": "K-562 leukemia",
    "GI50": "0.0478 µM"
  },
  {
    "molecule": "[N-]=[N+]=Nc1ncc(-c2ccc(C(F)(F)F)cc2)c(NC2CCCCCC2)n1",
    "measurementTarget": "K-562 leukemia",
    "GI50": "> 10 µM"
  },
  {
    "molecule": "COC(=O)Nc1ccc2ccc3c(NC(=O)OC)ccc4ccc1c2c43 (tested in a mixture with another compound)",
    "measurementTarget": "K-562 leukemia",
    "GI50": "3.29 µM"
  },
  {
    "molecule": "Cc1sc2ncnc(Sc3nc4ccccc4[nH]3)c2c1C",
    "measurementTarget": "K-562 leukemia",
    "GI50": "23.4 µM"
  },
  {
    "molecule": "Cc1c(C(=O)/C=C/c2ccc(O)cc2)nnn1-c1ccnc2c(C(F)(F)F)cccc12",
    "measurementTarget": "K-562 leukemia",
    "GI50": "2.64 µM"
  },
  {
    "molecule": "COc1cc2c(cc1OCCCCCOc1cc(-c3ccc(F)cc3)nc(C)n1)N=C[C@@H]1CCCN1C2=O",
    "measurementTarget": "K-562 leukemia",
    "GI50": "> 21.6 µM"
  },
  {
    "molecule": "CCOC(=O)c1sc(=S)c2c(C(=O)c3ccccc3)c(C(=O)c3ccccc3)sc2c1C(=O)OCC",
    "measurementTarget": "K-562 leukemia",
    "GI50": "3.21 µM"
  },
  {
    "molecule": "COc1cc(/C=C2\\CCCC3=C2NC(N)=NC3c2cc(OC)c(OC)c(OC)c2)cc(OC)c1OC (centres undefined)",
    "measurementTarget": "K-562 leukemia",
    "GI50": "2.15 µM"
  },
  {
    "molecule": "COc1nccc(-c2c(-c3ccc(F)cc3)ncn2C2CCC(O)CC2)n1 (centres undefined)",
    "measurementTarget": "K-562 leukemia",
    "GI50": "44.1 µM"
  },
  {
    "molecule": "O=C1N=C2c3c(sc4c3CCCC4)N=CN2C1N=Nc1ccc(Cl)cc1 (centres undefined)",
    "measurementTarget": "K-562 leukemia",
    "GI50": "5.13 µM"
  }
]

----------
compounds and their reported TGI
test system: TK-10 renal; experiment: NCI tumour cell line growth inhibition, 48 h
valueKind: TGI (µM)

[
  {
    "compound": "Cc1ccccc1C(C#N)/C(=N/NC(=O)c1cc2ccccc2cc1O)C(=O)Nc1cccc(Cl)c1 (stereo not drawn)",
    "comparisonSign": ">",
    "reported": 100
  },
  {
    "compound": "CC1CCC2(OC1)OC1CC3C4CC=C5CC(OC6OC(CO)C(OC7OC(C)C(OC8OC(C)C(O)C(O)C8O)C(O)C7O)C(O)C6OC6OC(C)C(O)C(O)C6O)CCC5(C)C4CCC3(C)C1C2C (stereo not drawn)",
    "comparisonSign": "=",
    "reported": 2.68
  },
  {
    "compound": "C/C(=N\\NC(N)=S)c1ccc(/C(C)=N/NC(N)=S)cc1",
    "comparisonSign": ">",
    "reported": 100
  },
  {
    "compound": "O=[N+]([O-])c1cccc(-c2nc3sccn3c2-c2ccnc(NCCCNS(=O)(=O)c3ccc(F)cc3)n2)c1",
    "comparisonSign": ">",
    "reported": 100
  },
  {
    "compound": "Cc1cc2c(C(C)C)c(O)c(O)c3coc(/c1=c1/c(C)cc4c(C(C)C)c(=O)c(=O)c5coc1c45)c32",
    "comparisonSign": "=",
    "reported": 27.8
  },
  {
    "compound": "NC(=S)N/N=C/c1cc(CN2CCOCC2)c(N)cn1",
    "comparisonSign": ">",
    "reported": 100
  },
  {
    "compound": "c1ccc(-c2nc(Nc3ccc(-c4nc5ccccc5[nH]4)cc3)nc(N3CCOCC3)n2)cc1",
    "comparisonSign": "=",
    "reported": 3.76
  },
  {
    "compound": "N#Cc1nc(-c2cccc(Br)c2)cc(-c2ccc(Nc3nc(N4CCCCC4)nc(N4CCCCC4)n3)cc2)c1N",
    "comparisonSign": "=",
    "reported": 3.47
  }
]

----------
tested on: SF-295 CNS; experiment: NCI tumour cell line growth inhibition, 48 h
valueKind: TGI (µM)

[
  {
    "compound": "CC(=O)c1c2c(cc3c1CC1(Cc4cc5c(cc4C1)CCC5)C3)CCC2",
    "comparisonSign": ">",
    "reported": 100
  },
  {
    "compound": "Cc1c(-c2ccccc2)c(-c2ccc(OCCN(C)C)cc2)n2ccccc12",
    "comparisonSign": "=",
    "reported": 26.7
  },
  {
    "compound": "C/C(C=O)=N\\Nc1cc(C)c2ccccc2n1",
    "comparisonSign": "=",
    "reported": 39.4
  },
  {
    "compound": "COc1ccc(C2(CN(C)C)COc3cc(OC)c(OC)cc3C2=O)cc1OC (stereo not given)",
    "comparisonSign": ">",
    "reported": 100
  },
  {
    "compound": "Cc1cccc(C(C)(C)C)c1NC(=O)CC1C(=O)Nc2ccccc2S1=O (stereo not given)",
    "comparisonSign": ">",
    "reported": 100
  },
  {
    "compound": "Cc1cccc2c3c(sc12)C(c1ccc(Cl)cc1)C(C#N)=C(/N=C/c1ccc(Cl)cc1)O3 (stereo not given)",
    "comparisonSign": "=",
    "reported": 2.37
  },
  {
    "compound": "Cc1ccc(-c2c(C#N)c(-c3ccc(N(C)C)cc3)c(C#N)c(=O)n2NS(=O)(=O)c2ccccc2)cc1",
    "comparisonSign": ">",
    "reported": 100
  },
  {
    "compound": "Cc1ccc2c(ccc3c[n+]4ccccc4c(C)c32)c1",
    "comparisonSign": "=",
    "reported": 27.2
  },
  {
    "compound": "O=[N+]([O-])c1ccc(Cc2nc3ccccc3s2)cc1",
    "comparisonSign": ">",
    "reported": 100
  },
  {
    "compound": "CCC(=O)N(c1ccccc1)C(C)CN1CCC(O)(c2ccccc2)CC1 (stereo not given)",
    "comparisonSign": ">",
    "reported": 100
  }
]

----------
test system: DU-145 prostate; assay: NCI tumour cell line growth inhibition, 48 h; in the data active means GI50 below about 0.43 µM; inactive means the rest
*1 amine or outer side, *2 acyl side, *3 side chain or, on linkers, in order; H or OH if unused. Where a SMILES comes first, the peptide text is derived from it. Bridges are numbered along the chain shown (N, C = ends). [ ]: non-standard residue; d: D form. ξ: configuration not given here. X4 = CCC(C)C(N[*:1])C(O)CC(=O)O[C@H](C(=O)C(C)C(=O)[*:2])C(C)C; NMeY = CN[C@@H](Cc1ccc(O)cc1)C(=O)O; X9 = O=C([C@@H]1CC(O)CN1[*:1])[*:2]; ξNMeL = CNC(CC(C)C)C(=O)O; ξT = CC(O)C(N)C(=O)O
Labels: active, inactive

[
  {
    "compound": "CN(C)c1cccc2[nH]c(-c3[nH]ncc3Nc3ccnc(N)n3)nc12",
    "className": "active"
  },
  {
    "compound": "OCCNc1nc(NCCO)nc(Nc2ccc(C3=NN(c4cc(Cl)cc(Cl)c4)C(c4ccc(Cl)cc4)C3)cc2)n1 (configuration not stated)",
    "className": "inactive"
  },
  {
    "compound": "COc1nccc(-c2c(-c3ccc(F)cc3)ncn2C2CCC(O)CC2)n1 (configuration not stated)",
    "className": "inactive"
  },
  {
    "compound": "N#Cc1nc(-c2cccc(Br)c2)cc(-c2ccc(Nc3nc(N4CCCCC4)nc(N4CCCCC4)n3)cc2)c1N",
    "className": "inactive"
  },
  {
    "compound": "O=C(O)C(/C=C/c1ccco1)=N\\Nc1nc(-c2ccc(Cl)cc2)cs1",
    "className": "inactive"
  },
  {
    "compound": "CCCCCC(=O)N1c2ccccc2NC2=C(C(=O)CC(c3ccc(OC)c(OC)c3)C2)C1c1ccc(C(F)(F)F)cc1 (configuration not stated)",
    "className": "inactive"
  },
  {
    "compound": "COc1cc(C)cc2c1OC(c1ccccc1)CC2=O (configuration not stated)",
    "className": "inactive"
  },
  {
    "compound": "O=c1cc/c(=N\\Nc2ccccc2)c(=O)/c1=N/Nc1ccccc1",
    "className": "inactive"
  },
  {
    "compound": "C[C@]12CC[C@H]3[C@@H](CC=C4C[C@@H](O)CC[C@@]43C)[C@@H]1C/C(=C\\c1cccc(OCCN3CCOCC3)c1)[C@@H]2O",
    "className": "inactive"
  },
  {
    "compound": "CCCCCCn1c(-c2ccc(C(=O)O/N=C(\\N)c3ccc(OC)cc3)cc2)nc(-c2ccccc2)c1-c1ccccc1",
    "className": "inactive"
  },
  {
    "compound": "Cc1cccc2c3c(sc12)C(c1ccc(Cl)cc1)C(C#N)=C(/N=C/c1ccc(Cl)cc1)O3 (configuration not stated)",
    "className": "inactive"
  },
  {
    "compound": "COC(=O)C1=CN(CC2=CC(=O)C(C)=CC2=O)C=C(C(=O)OC)C1c1cccc(OC)c1OC",
    "className": "inactive"
  },
  {
    "compound": "CCN(CC)CCC(=O)Nc1cccc2c1C(=O)c1c(c(O)c3ccccc3c1O)C2=O",
    "className": "inactive"
  },
  {
    "compound": "COc1ccc(NC2=C(Sc3nc(C)cc(C)n3)C(=O)N(Cc3ccccc3)C2=O)cc1Cl",
    "className": "inactive"
  },
  {
    "compound": "COc1ccc(/C=C/C(=O)c2ccc(Nc3ncnc4ccccc34)cc2)cc1OC",
    "className": "inactive"
  },
  {
    "compound": "CCC(C)C1NC(=O)C(NC(=O)C(CC(C)C)N(C)C(=O)[C@@H]2CC(O)CN2)C(C)OC(=O)[C@H](Cc2ccc(OC)cc2)N(C)C(=O)[C@@H]2CCCN2C(=O)[C@H](CC(C)C)NC(=O)C(C)C(=O)[C@H](C(C)C)OC(=O)CC1O (some centres not stated) (H-[X9][ξNMeL][ξT][X4]LP[NMeY](Me); ester 3-C)",
    "className": "active"
  },
  {
    "compound": "Cc1c(C(=O)/C=C/c2ccc(O)cc2)nnn1-c1ccnc2c(C(F)(F)F)cccc12",
    "className": "inactive"
  }
]
